Listing of IC50 toward Protein arginine N-methyltransferase 8 (Homo sapiens), each taken from a published source.
measurement kind: IC50 (nM)

                              line_notation  bound_type  quantitative_readout
0  CNCCN(C)Cc1c[nH]nc1-c1cc(OCCC2CCCCC2)cc(C(F)(F)F)c1           =                    21
1  O=C(NC[C@H](O)CN1CCc2ccccc2C1)c1ccc2c(c1)CCN(C(=O)c1ccc(Br)cc1)C2           >                100000
2  CNCCN(C)Cc1c[nH]nc1-c1ccc(Oc2cccc(C(=O)N(C)C)c2)cc1           =                   179
3                           CNCCN1CCC(C)CC1           =                 15000
4  CC(C)Oc1c(Cl)cc(-c2c[nH]nc2CN(C)CCN)cc1C(F)(F)F           =                    70
5  CNCCN(C)Cc1c[nH]nc1-c1cc(OCCc2ccccc2)cc(C(F)(F)F)c1           =                    23
